# assayed_system: PDGF AB (Homo sapiens) (UniProt P04085+P01127)
# Sequence (P01127 82-190, chain 2 of 2, other chains not shown): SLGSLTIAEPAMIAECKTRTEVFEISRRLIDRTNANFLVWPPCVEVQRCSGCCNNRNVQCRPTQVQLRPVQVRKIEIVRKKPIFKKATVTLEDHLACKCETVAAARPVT
# assay: filter
# condition_label: 2'-F on all C and U; random starting pool
parameter: pKd
Answers are plain numbers, as −log10 of the molar value.

Q: Fill in pKd for record GGGAGACAAGAAUAACGCUCAANNNNNNNNNNNNNNNNNNNNNNNNNNNNNNNNNNNNNNNNNNNNNNNNNNUUCGACAGGAGGCUCACAACAGGC [random 2'-F pyrimidine RNA pool (50N)]
Result: 7.46

src = patent US5668264
